These measurements were taken from patent US20240182536A1.

target: T1, IL-18 receptors on HEK-Blue IL-18 reporter cells (UniProt Q13478 19-541; O95256 20-599, limits assumed); note: unit not given here
T1 sequence (looked up) 1: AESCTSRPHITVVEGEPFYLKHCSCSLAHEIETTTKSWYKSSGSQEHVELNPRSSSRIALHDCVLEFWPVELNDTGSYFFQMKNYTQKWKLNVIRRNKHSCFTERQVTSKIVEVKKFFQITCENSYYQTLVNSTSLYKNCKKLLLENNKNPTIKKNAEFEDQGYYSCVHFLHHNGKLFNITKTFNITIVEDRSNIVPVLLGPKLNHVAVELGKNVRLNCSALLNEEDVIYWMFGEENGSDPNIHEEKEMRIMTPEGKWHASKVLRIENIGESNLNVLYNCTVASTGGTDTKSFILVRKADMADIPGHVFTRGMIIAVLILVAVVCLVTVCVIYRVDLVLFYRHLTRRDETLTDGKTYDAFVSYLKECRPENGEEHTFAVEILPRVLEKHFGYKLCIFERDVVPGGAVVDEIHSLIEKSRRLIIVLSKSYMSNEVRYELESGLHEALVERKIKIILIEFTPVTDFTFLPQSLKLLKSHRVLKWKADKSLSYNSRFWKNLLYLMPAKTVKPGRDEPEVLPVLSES
T1 sequence (looked up) 2: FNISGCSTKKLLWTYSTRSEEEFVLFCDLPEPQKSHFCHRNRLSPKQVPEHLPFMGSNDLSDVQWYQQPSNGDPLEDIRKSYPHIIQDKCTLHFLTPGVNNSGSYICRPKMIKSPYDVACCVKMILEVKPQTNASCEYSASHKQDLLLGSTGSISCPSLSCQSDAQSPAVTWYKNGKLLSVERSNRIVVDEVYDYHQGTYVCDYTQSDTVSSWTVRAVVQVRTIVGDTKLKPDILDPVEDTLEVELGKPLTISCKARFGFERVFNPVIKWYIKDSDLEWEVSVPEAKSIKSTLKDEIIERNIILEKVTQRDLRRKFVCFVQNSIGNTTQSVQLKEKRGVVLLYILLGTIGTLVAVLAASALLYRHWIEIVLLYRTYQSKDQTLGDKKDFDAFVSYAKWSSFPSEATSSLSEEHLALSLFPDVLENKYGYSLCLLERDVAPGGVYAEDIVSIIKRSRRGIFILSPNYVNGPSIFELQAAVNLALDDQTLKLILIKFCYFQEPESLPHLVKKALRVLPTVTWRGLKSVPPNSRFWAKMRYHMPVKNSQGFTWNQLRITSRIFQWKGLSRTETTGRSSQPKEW
test summary: cell-based or functional assay
assay metric: Activity, No BP, DF-500000
In your answer, state the number alone without any accompanying words.

Suppose we examine the binder IL-18 variant G3P, E6R, K53T, D54Y, S55I, T63V, N91G, R104K (ligand) YFPKLRSKLSVIRNLNDQVLFIDQGNRPLFEDMTDSDMRDNAPRTIFIISMYTYIQPRGMAVVISVKSEKISTLSSENKIISFKEMNPPDGIKDTKSDIIFFQKSVPGHDNKMQFESSSYEGYFLASEKERDLFKLILKKEDELGDRSIMFTVQNED ; what Activity, No BP, DF-500000 value has been reported?
0.08

Field entry: IL-18 variant G3T, E6Q, K53G, D54G, S55H, T63A, S65T, N91R, R104Q (ligand) YFTKLQSKLSVIRNLNDQVLFIDQGNRPLFEDMTDSDMRDNAPRTIFIISMYGGHQPRGMAVAITVKSEKISTLSSENKIISFKEMNPPDRIKDTKSDIIFFQQSVPGHDNKMQFESSSYEGYFLASEKERDLFKLILKKEDELGDRSIMFTVQNED
0.18

Field entry: IL-18 variant E6D, D54T, S55W, T63S, N91S, R104T (ligand) YFGKLDSKLSVIRNLNDQVLFIDQGNRPLFEDMTDSDMRDNAPRTIFIISMYKTWQPRGMAVSISVKSEKISTLSSENKIISFKEMNPPDSIKDTKSDIIFFQTSVPGHDNKMQFESSSYEGYFLASEKERDLFKLILKKEDELGDRSIMFTVQNED
0.55

Field entry: IL-18 variant G3L, E6Q, T63S, N91L, R104T (ligand) YFLKLQSKLSVIRNLNDQVLFIDQGNRPLFEDMTDSDMRDNAPRTIFIISMYKDSQPRGMAVSISVKSEKISTLSSENKIISFKEMNPPDLIKDTKSDIIFFQTSVPGHDNKMQFESSSYEGYFLASEKERDLFKLILKKEDELGDRSIMFTVQNED
2.01

Field entry: IL-18 variant G3H, E6Q, K53N, D54S, S55P, T63A, N91I, R104S (ligand) YFHKLQSKLSVIRNLNDQVLFIDQGNRPLFEDMTDSDMRDNAPRTIFIISMYNSPQPRGMAVAISVKSEKISTLSSENKIISFKEMNPPDIIKDTKSDIIFFQSSVPGHDNKMQFESSSYEGYFLASEKERDLFKLILKKEDELGDRSIMFTVQNED
0.09

Field entry: IL-18 variant G3Y, E6S, K53S, D54W, S55L, N91I (ligand) YFYKLSSKLSVIRNLNDQVLFIDQGNRPLFEDMTDSDMRDNAPRTIFIISMYSWLQPRGMAVTISVKSEKISTLSSENKIISFKEMNPPDIIKDTKSDIIFFQRSVPGHDNKMQFESSSYEGYFLASEKERDLFKLILKKEDELGDRSIMFTVQNED
0.24

Field entry: IL-18 variant K53T, D54H, S55V, T63A, N91K (ligand) YFGKLESKLSVIRNLNDQVLFIDQGNRPLFEDMTDSDMRDNAPRTIFIISMYTHVQPRGMAVAISVKSEKISTLSSENKIISFKEMNPPDKIKDTKSDIIFFQRSVPGHDNKMQFESSSYEGYFLASEKERDLFKLILKKEDELGDRSIMFTVQNED
0.12

Field entry: IL-18 variant G3S, E6Q, K53N, D54T, S55N, T63A, I80T, N91S (ligand) YFSKLQSKLSVIRNLNDQVLFIDQGNRPLFEDMTDSDMRDNAPRTIFIISMYNTNQPRGMAVAISVKSEKISTLSSENKTISFKEMNPPDSIKDTKSDIIFFQRSVPGHDNKMQFESSSYEGYFLASEKERDLFKLILKKEDELGDRSIMFTVQNED
0.11

Field entry: IL-18 variant G3I, E6D, D54A, S55F, N91Y, R104H (ligand) YFIKLDSKLSVIRNLNDQVLFIDQGNRPLFEDMTDSDMRDNAPRTIFIISMYKAFQPRGMAVTISVKSEKISTLSSENKIISFKEMNPPDYIKDTKSDIIFFQHSVPGHDNKMQFESSSYEGYFLASEKERDLFKLILKKEDELGDRSIMFTVQNED
1.96

Field entry: IL-18 variant G3P, E6N, D54Y, T63S, N91S, R104Q (ligand) YFPKLNSKLSVIRNLNDQVLFIDQGNRPLFEDMTDSDMRDNAPRTIFIISMYKYSQPRGMAVSISVKSEKISTLSSENKIISFKEMNPPDSIKDTKSDIIFFQQSVPGHDNKMQFESSSYEGYFLASEKERDLFKLILKKEDELGDRSIMFTVQNED
0.1

Field entry: IL-18 variant G3D, E6G, K53G, D54A, T63S, N91Y, R104Q (ligand) YFDKLGSKLSVIRNLNDQVLFIDQGNRPLFEDMTDSDMRDNAPRTIFIISMYGASQPRGMAVSISVKSEKISTLSSENKIISFKEMNPPDYIKDTKSDIIFFQQSVPGHDNKMQFESSSYEGYFLASEKERDLFKLILKKEDELGDRSIMFTVQNED
0.72

Field entry: IL-18 variant G3L, E6S, D54T, T63S, N91Y, R104Q (ligand) YFLKLSSKLSVIRNLNDQVLFIDQGNRPLFEDMTDSDMRDNAPRTIFIISMYKTSQPRGMAVSISVKSEKISTLSSENKIISFKEMNPPDYIKDTKSDIIFFQQSVPGHDNKMQFESSSYEGYFLASEKERDLFKLILKKEDELGDRSIMFTVQNED
1.98

Field entry: IL-18 variant G3P, E6D, K53T, D54N, T63A, N91T, R104P (ligand) YFPKLDSKLSVIRNLNDQVLFIDQGNRPLFEDMTDSDMRDNAPRTIFIISMYTNSQPRGMAVAISVKSEKISTLSSENKIISFKEMNPPDTIKDTKSDIIFFQPSVPGHDNKMQFESSSYEGYFLASEKERDLFKLILKKEDELGDRSIMFTVQNED
0.07
